Data origin, for the record: patent US20230139171A1

Target system: human TLR8 (Homo sapiens, UniProt Q9NR97)
Construct: host or cells: HEK-Blue cells
Sequence (Q9NR97 27-1041): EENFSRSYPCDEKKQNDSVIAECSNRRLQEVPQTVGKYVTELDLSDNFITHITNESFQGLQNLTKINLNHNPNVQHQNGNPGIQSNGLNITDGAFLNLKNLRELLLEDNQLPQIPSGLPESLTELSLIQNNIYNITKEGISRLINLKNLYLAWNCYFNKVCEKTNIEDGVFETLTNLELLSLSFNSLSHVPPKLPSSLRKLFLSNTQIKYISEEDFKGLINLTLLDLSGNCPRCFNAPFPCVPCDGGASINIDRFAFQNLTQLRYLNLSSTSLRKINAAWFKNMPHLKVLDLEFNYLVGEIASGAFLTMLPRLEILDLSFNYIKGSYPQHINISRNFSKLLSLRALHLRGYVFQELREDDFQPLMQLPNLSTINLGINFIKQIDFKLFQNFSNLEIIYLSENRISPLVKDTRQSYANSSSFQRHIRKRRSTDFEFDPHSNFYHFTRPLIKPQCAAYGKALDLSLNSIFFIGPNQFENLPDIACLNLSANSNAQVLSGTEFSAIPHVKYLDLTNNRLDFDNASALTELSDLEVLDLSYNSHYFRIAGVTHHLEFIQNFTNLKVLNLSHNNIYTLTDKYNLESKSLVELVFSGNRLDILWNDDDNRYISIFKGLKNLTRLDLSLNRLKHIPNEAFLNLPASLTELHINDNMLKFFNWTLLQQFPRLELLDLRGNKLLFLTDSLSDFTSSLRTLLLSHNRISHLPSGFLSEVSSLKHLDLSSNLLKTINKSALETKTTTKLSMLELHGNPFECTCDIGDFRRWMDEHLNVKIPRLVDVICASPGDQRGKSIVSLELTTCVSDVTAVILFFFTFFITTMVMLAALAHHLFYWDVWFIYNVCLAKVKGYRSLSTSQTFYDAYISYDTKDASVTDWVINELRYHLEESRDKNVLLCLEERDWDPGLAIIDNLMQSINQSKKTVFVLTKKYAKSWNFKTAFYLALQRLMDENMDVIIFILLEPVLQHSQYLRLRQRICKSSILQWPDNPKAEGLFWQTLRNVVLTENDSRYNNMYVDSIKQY
Protocol details: TLR8 inhibition reporter assay (HEK-Blue cells, SEAP reporter, R848 stimulation)
Format: cell-based
Conditions: HEK-Blue cells overexpressing human TLR8, SEAP reporter, R848 15.9 μM; read-out: TLR8 IC50
Assign a class from recorded IC50; defined classes: lower (below 2 nM), middle (2 nM to below 5 nM), upper (5 nM or more)

Completed entries (count: 5):
Cc1c(-c2[nH]c3sc(N4CCNCC4)nc3c2C(C)C)cn2ncnc2c1C	lower
COc1cc(-c2[nH]c3sc(C4CCC(N5CCS(=O)(=O)CC5)CC4)nc3c2C(C)C)cn2ncnc12 (single isomer, unassigned) [Example 82]	upper
Cc1c(-c2[nH]c3sc(C4CCC(NCC(C)(C)C)CC4)nc3c2C(C)C)cn2ncnc2c1C (single isomer, unassigned)	middle
COc1cc(-c2[nH]c3sc(C(=O)NCC(F)(F)F)nc3c2C(C)C)cn2ncnc12	upper
CCN(C)C1CCC(c2nc3c(C(C)C)c(-c4cc(OC)c5ncnn5c4)[nH]c3s2)CC1 (single isomer, unassigned) [Example 72]	middle

Q. # bin label for Cc1c(-c2[nH]c3sc(C4CCC(N5CC(O)C5)CC4)nc3c2C(C)C)cn2ncnc2c1C (single isomer, unassigned) [Example 225]
A. middle

Q. Another compound to look at: CNC1CCC(c2nc3c(C(C)C)c(-c4cc(OC)c5ncnn5c4)[nH]c3s2)CC1 (single isomer, unassigned) [Example 74]
A. middle

Q. Another compound to look at: Cc1c(-c2[nH]c3sc(N4C[C@@H](C)N(C(C)C)C[C@@H]4C)nc3c2C(C)C)cn2ncnc2c1C [Example 330]
A. lower

Q. Another compound to look at: "CNC(=O)CN1CCC(c2nc3c(C(C)C)c(-c4cn5ncnc5c(C)c4C)[nH]c3s2)CC1"
A. middle

Q. Another compound to look at: COc1cc(-c2[nH]c3sc(C4CCC(N5CC(O)(C(F)(F)F)C5)CC4)nc3c2C(C)C)cn2ncnc12 (single isomer, unassigned) [Example 119]
A. upper

Q. Another compound to look at: Cc1c(-c2[nH]c3sc(C4CCC(N(C)CC(C)C)CC4)nc3c2C(C)C)cn2ncnc2c1C (single isomer, unassigned) [Example 228]
A. lower

Q. Another compound to look at: "Cc1c(-c2[nH]c3sc(N4CCN(C5CCC5)C[C@H]4C)nc3c2C(C)C)cn2ncnc2c1C"
A. middle

Q. Another compound to look at: "Cc1c(-c2[nH]c3sc(N4CCN(CCS(C)(=O)=O)CC4)nc3c2C(C)C)cn2ncnc2c1C"
A. upper

Q. Another compound to look at: "Cc1c(-c2[nH]c3sc(N4CCN(CC5(C)COC5)CC4)nc3c2C(C)C)cn2ncnc2c1C"
A. lower

* * *

Target system: human TLR7 (Homo sapiens)
Construct: host or cells: HEK-Blue cells
Sequence (Q9NYK1 27-1049): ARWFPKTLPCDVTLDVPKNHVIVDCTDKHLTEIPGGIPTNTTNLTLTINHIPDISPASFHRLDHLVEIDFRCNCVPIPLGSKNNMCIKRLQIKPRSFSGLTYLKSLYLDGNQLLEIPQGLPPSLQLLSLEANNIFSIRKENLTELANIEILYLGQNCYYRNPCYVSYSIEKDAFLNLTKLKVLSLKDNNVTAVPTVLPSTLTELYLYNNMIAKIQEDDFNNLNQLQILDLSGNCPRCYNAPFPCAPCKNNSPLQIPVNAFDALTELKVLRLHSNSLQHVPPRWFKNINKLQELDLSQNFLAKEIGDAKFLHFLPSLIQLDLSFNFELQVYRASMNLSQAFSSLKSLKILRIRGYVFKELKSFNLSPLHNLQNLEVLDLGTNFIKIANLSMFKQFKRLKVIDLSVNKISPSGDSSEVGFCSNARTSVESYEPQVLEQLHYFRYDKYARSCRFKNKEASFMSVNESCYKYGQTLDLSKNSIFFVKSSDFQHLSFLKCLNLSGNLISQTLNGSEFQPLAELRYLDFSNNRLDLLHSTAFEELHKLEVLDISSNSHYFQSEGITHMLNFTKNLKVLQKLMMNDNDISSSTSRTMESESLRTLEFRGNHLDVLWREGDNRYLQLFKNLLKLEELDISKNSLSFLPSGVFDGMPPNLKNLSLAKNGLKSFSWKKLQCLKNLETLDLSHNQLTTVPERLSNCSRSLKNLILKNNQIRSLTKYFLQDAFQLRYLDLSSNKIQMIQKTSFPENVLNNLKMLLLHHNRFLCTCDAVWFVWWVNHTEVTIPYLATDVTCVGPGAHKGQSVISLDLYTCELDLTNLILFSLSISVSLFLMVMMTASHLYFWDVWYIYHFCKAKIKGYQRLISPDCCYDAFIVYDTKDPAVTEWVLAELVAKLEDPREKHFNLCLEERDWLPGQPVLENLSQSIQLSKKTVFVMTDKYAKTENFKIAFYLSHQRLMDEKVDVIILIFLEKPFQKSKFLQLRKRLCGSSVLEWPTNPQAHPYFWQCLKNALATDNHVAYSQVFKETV
Protocol details: TLR7 inhibition reporter assay (HEK-Blue cells, SEAP reporter, gardiquimod stimulation)
Format: cell-based
Conditions: HEK-Blue cells overexpressing human TLR7, SEAP reporter, gardiquimod 7.5 μM; read-out: TLR7 IC50
Metric name: pIC50
// pIC50 is dimensionless: -log10 of concentration (M)

The examples below pair each entry with its known result.
COc1cc(-c2[nH]c3sc(C4CCC(NC5CC6(CNC6)C5)CC4)nc3c2C(C)C)cn2ncnc12 (single isomer, unassigned) [Example 116]	8.51
Cc1c(-c2[nH]c3sc(C4CCC(NCC(=O)N(C)C)CC4)nc3c2C(C)C)cn2ncnc2c1C (single isomer, unassigned) [Example 205]	8.18

Now examine the next entry.
Q. For COc1cc(-c2[nH]c3sc(C4CCC(N5CC(CO)(CO)C5)CC4)nc3c2C(C)C)cn2ncnc12 (single isomer, unassigned) , what is its reported pIC50?
A. 7.90

* * *

Target system: human TLR9 (Homo sapiens, UniProt Q9NR96)
Sequence (Q9NR96 26-1032): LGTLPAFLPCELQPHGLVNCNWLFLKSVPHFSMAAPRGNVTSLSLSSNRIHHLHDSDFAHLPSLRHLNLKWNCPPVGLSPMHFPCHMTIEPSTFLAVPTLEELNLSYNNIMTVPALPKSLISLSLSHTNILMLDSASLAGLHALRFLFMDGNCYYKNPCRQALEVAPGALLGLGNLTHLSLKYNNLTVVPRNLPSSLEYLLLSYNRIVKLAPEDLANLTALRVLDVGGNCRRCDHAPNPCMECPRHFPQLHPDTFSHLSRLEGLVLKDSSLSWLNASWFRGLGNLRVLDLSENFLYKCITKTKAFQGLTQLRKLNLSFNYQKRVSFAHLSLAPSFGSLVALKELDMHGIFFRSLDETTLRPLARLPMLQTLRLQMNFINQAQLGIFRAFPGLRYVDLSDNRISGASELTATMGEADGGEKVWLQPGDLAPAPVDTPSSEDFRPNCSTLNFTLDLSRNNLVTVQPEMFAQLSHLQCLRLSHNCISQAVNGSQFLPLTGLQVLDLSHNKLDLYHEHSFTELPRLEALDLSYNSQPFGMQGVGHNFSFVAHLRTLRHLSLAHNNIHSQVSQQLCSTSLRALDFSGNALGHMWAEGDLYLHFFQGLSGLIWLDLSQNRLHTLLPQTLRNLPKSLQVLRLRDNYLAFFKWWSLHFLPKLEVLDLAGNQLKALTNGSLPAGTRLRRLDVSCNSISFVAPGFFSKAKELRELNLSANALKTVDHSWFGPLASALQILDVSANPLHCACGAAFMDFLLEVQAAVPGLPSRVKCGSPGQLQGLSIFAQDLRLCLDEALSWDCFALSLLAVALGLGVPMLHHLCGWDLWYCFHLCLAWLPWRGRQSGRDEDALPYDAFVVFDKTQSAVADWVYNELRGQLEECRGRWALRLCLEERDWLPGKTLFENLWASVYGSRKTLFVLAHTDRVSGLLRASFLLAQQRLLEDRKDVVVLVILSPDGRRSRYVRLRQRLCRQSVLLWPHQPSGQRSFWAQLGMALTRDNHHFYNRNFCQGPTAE
Protocol details: TLR9 inhibition reporter assay (HEK-Blue cells, SEAP reporter, ODN2006 stimulation)
Conditions: HEK-Blue cells overexpressing human TLR9, SEAP reporter, ODN2006 5 nM
pIC50: −log10 of the molar value.
Outcome label depends on pIC50 relative to 5: at/above gives T, below gives F.

Cc1c(-c2[nH]c3sc(C4CCNCC4)nc3c2C(C)C)cn(C)c(=O)c1C [Example 42]	F
Cc1c(-c2[nH]c3sc(C4CCC(N(C)C(C)C)CC4)nc3c2C(C)C)cn(C)c(=O)c1C (single isomer, unassigned) [Example 261]	F
COc1cc(-c2[nH]c3sc(C4CCC(N5CCCOCC5)CC4)nc3c2C(C)C)cn2ncnc12 (single isomer, unassigned) [Example 103]	T
Cc1c(-c2[nH]c3sc(N4CCN(C5CCN(C(C)C)CC5)C[C@H]4C)nc3c2C(C)C)cn2ncnc2c1C [Example 324]	T
Cc1c(-c2[nH]c3sc(N4C[C@@H](C)N(CC(C)(C)O)C[C@@H]4C)nc3c2C(C)C)cn2ncnc2c1C [Example 339]	F
COc1cc(-c2[nH]c3cc(C4CCNCC4)sc3c2C(C)C)cn2ncnc12 [Example 413]	T

Q. Identify whether the reported pIC50 of the following molecule is 5 or greater: CCC1(NC2CCC(c3nc4c(C(C)C)c(-c5cc(OC)c6ncnn6c5)[nH]c4s3)CC2)COC1 (single isomer, unassigned) [Example 94]
A. F

Q. Another molecule to look at: Cc1c(-c2[nH]c3sc(N4CCC(NC5(C)COC5)CC4)nc3c2C(C)C)cn2ncnc2c1C [Example 290]
A. F

Q. Another molecule to look at: COc1cc(-c2[nH]c3sc(C4CCC(N5CCC5)CC4)nc3c2C(C)C)cn2ncnc12 (single isomer, unassigned) [Example 76]
A. T

Q. Another molecule to look at: Cc1cc(-c2[nH]c3sc(C4CCC(NCC5(C)COC5)CC4)nc3c2C(C)C)cn2ncnc12 (single isomer, unassigned) [Example 135]
A. F

Q. Another molecule to look at: COc1cc(-c2[nH]c3sc(C4CCC(N5CCS(=O)(=O)CC5)CC4)nc3c2C(C)C)cn2ncnc12 (single isomer, unassigned) [Example 82]
A. F
